# Test system: 885512-296-R-J2-PDC complex spheroid viability
# procedure_summary: Anticancer human tumor 885512-296-R-J2-PDC patient-derived breast carcinoma cell line growth inhibition [GQUAD]
# measurement_context: curve of first compound; second compound 10 µM
metric_name: IC50

Some solved cases for reference:
O=C(c1cc(Cc2n[nH]c(=O)c3ccccc23)ccc1F)N1CCN(C(=O)C2CC2)CC1 + Cc1cnc(CNC(=O)c2c(=O)c3ccc(N4CCCN(C)CC4)nc3n3c2sc2ccccc23)cn1	< 31.6 nM
Cc1[nH]c2ccccc2c1CCNCc1ccc(/C=C/C(=O)NO)cc1 + Cc1cnc(CNC(=O)c2c(=O)c3ccc(N4CCCN(C)CC4)nc3n3c2sc2ccccc23)cn1	< 0.999 nM

Moving on to the next molecule.
**Q:** Consider the molecule CC1COCCN1c1cc(-c2ccnn2C)c2ccnc(-c3ccn[nH]3)c2n1 (stereo not drawn) + Cc1[nH]c2ccc(F)cc2c1-c1nc2c3cccnc3c3ncccc3c2[nH]1 and give its measured IC50.
**A:** < 31.6 nM

* * *

# Tested on: 885512-296-R-J2-PDC complex spheroid viability
# procedure_summary: Anticancer human tumor 885512-296-R-J2-PDC cell line growth inhibition [GQUAD];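 note: spheroids exposed to the compounds for one week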
# measurement_context: curve of first compound; second compound 1 µM
pIC50: −log10 of the molar value.
metric_name: pIC50

Some solved cases for reference:
C=CCn1c(=O)c2cnc(Nc3ccc(N4CCN(C)CC4)cc3)nc2n1-c1cccc(C(C)(C)O)n1 + Cc1cnc(CNC(=O)c2c(=O)c3ccc(N4CCCN(C)CC4)nc3n3c2sc2ccccc23)cn1	> 7.50
C#Cc1c(F)ccc2cc(O)cc(-c3ncc4c(N5CC6CCC(C5)N6)nc(OCC56CCCN5CC(F)C6)nc4c3F)c12 (stereo unspecified) + Cc1cnc(CNC(=O)c2c(=O)c3ccc(N4CCCN(C)CC4)nc3n3c2sc2ccccc23)cn1	> 7.50
CC1COCCN1c1cc(-c2ccnn2C)c2ccnc(-c3ccn[nH]3)c2n1 (stereo unspecified) + CN(C)c1ccc(Nc2c3ccc(NC(=O)CCN4CCCC4)cc3nc3cc(NC(=O)CCN4CCCC4)ccc23)cc1	> 7.50
CC(C)(O)C1CCC(Nc2ccc3ncc(-c4cccc(C(F)(F)F)c4)n3n2)CC1 (stereo unspecified) + Cc1[nH]c2ccc(F)cc2c1-c1nc2c3cccnc3c3ncccc3c2[nH]1	5.16
COc1ncnc(C2CC2)c1-c1ncc2cnn(Cc3ccc(-c4nc(C(F)(F)F)cn4C(C)C)cc3)c2n1 + CN(C)c1ccc(Nc2c3ccc(NC(=O)CCN4CCCC4)cc3nc3cc(NC(=O)CCN4CCCC4)ccc23)cc1	< 5.00

Moving on to the next molecule.
**Q:** Consider the molecule CC(C)n1c(=O)n(C)c2cnc3cc(F)c(-c4ccc(OCCCN5CCCCC5)nc4)cc3c21 + Cc1cnc(CNC(=O)c2c(=O)c3ccc(N4CCCN(C)CC4)nc3n3c2sc2ccccc23)cn1 and give its measured pIC50.
**A:** > 7.50

* * *

# Tested on: 885512-296-R-J2-PDC complex spheroid viability
# procedure_summary: Anticancer human tumor 885512-296-R-J2-PDC cell line growth inhibition [GQUAD];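 note: spheroids exposed to the compounds for one week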;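 for viability, T/C: percent of tumor spheroid viability relative to DMSO vehicle control wells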
# measurement_context: second compound 10 µM; first compound 10 µM; stronger effect = lower value
metric_name: viability, T/C

Cc1cccc(N(C)C(=O)C2C(O)CCN2c2nc(C)cc(C(F)(F)F)c2C#N)c1 (stereo unspecified) + Cc1cnc(CNC(=O)c2c(=O)c3ccc(N4CCCN(C)CC4)nc3n3c2sc2ccccc23)cn1	0.25%
COc1ncnc(C2CC2)c1-c1ncc2cnn(Cc3ccc(-c4nc(C(F)(F)F)cn4C(C)C)cc3)c2n1 + Cc1[nH]c2ccc(F)cc2c1-c1nc2c3cccnc3c3ncccc3c2[nH]1	0.35%
COc1ncnc(C2CC2)c1-c1ncc2cnn(Cc3ccc(-c4nc(C(F)(F)F)cn4C(C)C)cc3)c2n1 + Cc1cnc(CNC(=O)c2c(=O)c3ccc(N4CCCN(C)CC4)nc3n3c2sc2ccccc23)cn1	0.25%
CC(C)n1c(=O)n(C)c2cnc3cc(F)c(-c4ccc(OCCCN5CCCCC5)nc4)cc3c21 + CN(C)c1ccc(Nc2c3ccc(NC(=O)CCN4CCCC4)cc3nc3cc(NC(=O)CCN4CCCC4)ccc23)cc1	2.68%

**Q:** Consider the compound O=c1[nH]cc(F)c(=O)[nH]1 + CN(C)c1ccc(Nc2c3ccc(NC(=O)CCN4CCCC4)cc3nc3cc(NC(=O)CCN4CCCC4)ccc23)cc1 and give its measured viability, T/C.
**A:** 18%

**Q:** Consider the compound C=CCn1c(=O)c2cnc(Nc3ccc(N4CCN(C)CC4)cc3)nc2n1-c1cccc(C(C)(C)O)n1 + CN(C)c1ccc(Nc2c3ccc(NC(=O)CCN4CCCC4)cc3nc3cc(NC(=O)CCN4CCCC4)ccc23)cc1 and give its measured viability, T/C.
**A:** 1.46%

**Q:** Consider the compound Nc1ccn(C2OC(CO)C(O)C2(F)F)c(=O)n1 (stereo unspecified) + Cc1[nH]c2ccc(F)cc2c1-c1nc2c3cccnc3c3ncccc3c2[nH]1 and give its measured viability, T/C.
**A:** 1.08%
